Test system: Staphylococcus aureus (ATCC 29213)
Experimental Details: MIC, broth microdilution
Type: cell-based
Condition Notes: ATCC29213, read-out: Minimum inhibitory concentration (MIC), SA
Measured Endpoint: MIC

compound="Cc1ccc(S(=O)(=O)N2C(=O)CSC2c2ccc(Br)cc2)cc1 (stereo not drawn)" result="16 mg/L"
compound="Cc1ccc(S(=O)(=O)N2C(=O)CSC2c2cccc(O)c2)cc1 (stereo not drawn)" result="64 mg/L"
compound="Cc1ccc(S(=O)(=O)N2C(=O)CSC2c2cccc(Br)c2)cc1 (stereo not drawn)" result="32 mg/L"
compound="Cc1ccc(S(=O)(=O)N2C(=O)CSC2c2ccccc2Cl)cc1 (stereo not drawn)" result="64 mg/L"
compound="Cc1ccc(S(=O)(=O)N2C(=O)CSC2c2ccccc2C)cc1 (stereo not drawn)" result="64 mg/L"
compound="Cc1ccc(S(=O)(=O)N2C(=O)CSC2c2ccccc2)cc1 (stereo not drawn)" result="64 mg/L"
compound="Cc1ccc(S(=O)(=O)N2C(=O)CSC2c2ccc([N+](=O)[O-])cc2)cc1 (stereo not drawn)" result="32 mg/L"
compound="Cc1ccc(S(=O)(=O)N2C(=O)CSC2c2ccccc2O)cc1 (stereo not drawn)" result="64 mg/L"
compound="Cc1ccc(C2SCC(=O)N2S(=O)(=O)c2ccc(C)cc2)cc1 (stereo not drawn)" result="64 mg/L"
compound="Cc1ccc(S(=O)(=O)N2C(=O)CSC2c2cccc(C)c2)cc1 (stereo not drawn)" result="128 mg/L"
compound="Cc1ccc(S(=O)(=O)N2C(=O)CSC2c2ccccc2[N+](=O)[O-])cc1 (stereo not drawn)" result="16 mg/L"
compound="Cc1ccc(S(=O)(=O)N2C(=O)CSC2c2ccc(C(C)C)cc2)cc1 (stereo not drawn)" result="> 256 mg/L"
compound="Cc1ccc(S(=O)(=O)N2C(=O)CSC2c2ccc(O)cc2)cc1 (stereo not drawn)" result="32 mg/L"
compound="Cc1ccc(S(=O)(=O)N2C(=O)CSC2c2cccc(F)c2)cc1 (stereo not drawn)" result="16 mg/L"
compound="Cc1ccc(S(=O)(=O)N2C(=O)CSC2c2ccccc2F)cc1 (stereo not drawn)" result="8 mg/L"
compound="Cc1ccc(S(=O)(=O)N2C(=O)CSC2c2cccc(Cl)c2)cc1 (stereo not drawn)" result="32 mg/L"
compound="Cc1ccc(S(=O)(=O)N2C(=O)CSC2c2cccc([N+](=O)[O-])c2)cc1 (stereo not drawn)" result="32 mg/L"
compound="Cc1ccc(S(=O)(=O)N2C(=O)CSC2c2ccc(F)cc2)cc1 (stereo not drawn)" result="4 mg/L"
compound="CC1(C)S[C@@H]2[C@H](NC(=O)[C@H](N)c3ccccc3)C(=O)N2[C@H]1C(=O)O [AA, Ampicillin, reference compound]" result="2 mg/L"
compound="Cc1ccc(S(=O)(=O)N2C(=O)CSC2c2ccc(Cl)cc2)cc1 (stereo not drawn)" result="4 mg/L"
compound="Cc1ccc(S(=O)(=O)N2C(=O)CSC2c2ccccc2Br)cc1 (stereo not drawn)" result="32 mg/L"

* * *

Test system: Influenza A/H1N1 A/Ned/378/05
Experimental Details: CPE reduction assay in MDCK cells
Format: cell-based
Condition Notes: Influenza A virus, read-out: Antiviral EC50, Influenza A/H1N1 A/Ned/378/05, visual CPE score
pEC50: −log10 of the molar value.
Overview of recorded pEC50 for various compounds
Measured Endpoint: pEC50

compound="Cc1ccc(S(=O)(=O)N2C(=O)CSC2c2ccccc2Cl)cc1 (centres unmarked)" result="< 4.00"
compound="Cc1ccc(S(=O)(=O)N2C(=O)CSC2c2ccc(Cl)cc2)cc1 (centres unmarked)" result="< 4.00"
compound="Cc1ccc(S(=O)(=O)N2C(=O)CSC2c2ccc(C(C)C)cc2)cc1 (centres unmarked)" result="< 4.00"
compound="Cc1ccc(S(=O)(=O)N2C(=O)CSC2c2cccc([N+](=O)[O-])c2)cc1 (centres unmarked)" result="< 4.00"
compound="Cc1ccc(S(=O)(=O)N2C(=O)CSC2c2ccccc2)cc1 (centres unmarked)" result="< 4.00"
compound="Cc1ccc(S(=O)(=O)N2C(=O)CSC2c2ccc([N+](=O)[O-])cc2)cc1 (centres unmarked)" result="< 4.00"
compound="Cc1ccc(S(=O)(=O)N2C(=O)CSC2c2ccccc2O)cc1 (centres unmarked)" result="< 4.00"
compound="Cc1ccc(S(=O)(=O)N2C(=O)CSC2c2ccccc2F)cc1 (centres unmarked)" result="< 4.00"
compound="Cc1ccc(S(=O)(=O)N2C(=O)CSC2c2ccc(O)cc2)cc1 (centres unmarked)" result="< 4.00"
compound="Cc1ccc(S(=O)(=O)N2C(=O)CSC2c2cccc(Br)c2)cc1 (centres unmarked)" result="< 4.00"
compound="Cc1ccc(S(=O)(=O)N2C(=O)CSC2c2ccccc2[N+](=O)[O-])cc1 (centres unmarked)" result="< 4.00"

* * *

Overview of recorded Minimum cytotoxic conc. for various compounds
Tested on: MT4 cells
Condition Notes: MT4 cell cultures; colorimetric MTT cell viability assay
Measured Endpoint: Minimum cytotoxic conc.

compound="Cc1ccc(S(=O)(=O)N2C(=O)CSC2c2ccccc2O)cc1 (stereo not drawn)" result=">125 µM"
compound="Cc1ccc(S(=O)(=O)N2C(=O)CSC2c2ccc(C(C)C)cc2)cc1 (stereo not drawn)" result=">125 µM"
compound="Cc1ccc(S(=O)(=O)N2C(=O)CSC2c2ccc(O)cc2)cc1 (stereo not drawn)" result=">125 µM"
compound="Cc1ccc(S(=O)(=O)N2C(=O)CSC2c2ccccc2[N+](=O)[O-])cc1 (stereo not drawn)" result=">125 µM"
compound="Cc1ccnc2c1NC(=O)c1cccnc1N2C1CC1 [Nevirapine, reference compound]" result=">4 µM"
compound="Nc1ccn([C@@H]2CS[C@H](CO)O2)c(=O)n1 [Lamivudine, reference compound]" result=">20 µM"
compound="O=c1[nH]cnc2c1ncn2[C@H]1CC[C@@H](CO)O1 [Didanosine, reference compound]" result=">50 µM"
compound="Cc1ccc(S(=O)(=O)N2C(=O)CSC2c2cccc(Br)c2)cc1 (stereo not drawn)" result=">125 µM"
compound="Cc1ccc(S(=O)(=O)N2C(=O)CSC2c2ccccc2)cc1 (stereo not drawn)" result=">125 µM"

* * *

The next entries give measured MIC for Escherichia coli (ATCC 8739).
Measured Endpoint: MIC (µg/mL)

molecule="Cc1ccc(S(=O)(=O)N2C(=O)CSC2c2ccc(Cl)cc2)cc1 (stereo not drawn)" tested_on="Escherichia coli (ATCC 8739)" reported_relation== measured_number=4
molecule="Cc1ccc(S(=O)(=O)N2C(=O)CSC2c2cccc(O)c2)cc1 (stereo not drawn)" tested_on="Escherichia coli (ATCC 8739)" reported_relation== measured_number=16
molecule="Cc1ccc(S(=O)(=O)N2C(=O)CSC2c2ccc(F)cc2)cc1 (stereo not drawn)" tested_on="Escherichia coli (ATCC 8739)" reported_relation== measured_number=2
molecule="Cc1ccc(S(=O)(=O)N2C(=O)CSC2c2ccc(C(C)C)cc2)cc1 (stereo not drawn)" tested_on="Escherichia coli (ATCC 8739)" reported_relation=> measured_number=256
molecule="Cc1ccc(S(=O)(=O)N2C(=O)CSC2c2ccc(O)cc2)cc1 (stereo not drawn)" tested_on="Escherichia coli (ATCC 8739)" reported_relation== measured_number=16
molecule="Cc1ccc(S(=O)(=O)N2C(=O)CSC2c2ccccc2C)cc1 (stereo not drawn)" tested_on="Escherichia coli (ATCC 8739)" reported_relation== measured_number=64
molecule="Cc1ccc(S(=O)(=O)N2C(=O)CSC2c2ccc(Br)cc2)cc1 (stereo not drawn)" tested_on="Escherichia coli (ATCC 8739)" reported_relation== measured_number=4
molecule="Cc1ccc(S(=O)(=O)N2C(=O)CSC2c2cccc(Br)c2)cc1 (stereo not drawn)" tested_on="Escherichia coli (ATCC 8739)" reported_relation== measured_number=16
molecule="Cc1ccc(C2SCC(=O)N2S(=O)(=O)c2ccc(C)cc2)cc1 (stereo not drawn)" tested_on="Escherichia coli (ATCC 8739)" reported_relation== measured_number=64
molecule="Cc1ccc(S(=O)(=O)N2C(=O)CSC2c2cccc([N+](=O)[O-])c2)cc1 (stereo not drawn)" tested_on="Escherichia coli (ATCC 8739)" reported_relation== measured_number=32
molecule="Cc1ccc(S(=O)(=O)N2C(=O)CSC2c2cccc(Cl)c2)cc1 (stereo not drawn)" tested_on="Escherichia coli (ATCC 8739)" reported_relation== measured_number=8
molecule="Cc1ccc(S(=O)(=O)N2C(=O)CSC2c2ccccc2O)cc1 (stereo not drawn)" tested_on="Escherichia coli (ATCC 8739)" reported_relation== measured_number=32
molecule="Cc1ccc(S(=O)(=O)N2C(=O)CSC2c2ccc([N+](=O)[O-])cc2)cc1 (stereo not drawn)" tested_on="Escherichia coli (ATCC 8739)" reported_relation== measured_number=16
molecule="Cc1ccc(S(=O)(=O)N2C(=O)CSC2c2ccccc2[N+](=O)[O-])cc1 (stereo not drawn)" tested_on="Escherichia coli (ATCC 8739)" reported_relation== measured_number=16
molecule="Cc1ccc(S(=O)(=O)N2C(=O)CSC2c2ccccc2Cl)cc1 (stereo not drawn)" tested_on="Escherichia coli (ATCC 8739)" reported_relation== measured_number=16
molecule="Cc1ccc(S(=O)(=O)N2C(=O)CSC2c2cccc(F)c2)cc1 (stereo not drawn)" tested_on="Escherichia coli (ATCC 8739)" reported_relation== measured_number=16
molecule="Cc1ccc(S(=O)(=O)N2C(=O)CSC2c2ccccc2)cc1 (stereo not drawn)" tested_on="Escherichia coli (ATCC 8739)" reported_relation== measured_number=64
molecule="Cc1ccc(S(=O)(=O)N2C(=O)CSC2c2ccccc2Br)cc1 (stereo not drawn)" tested_on="Escherichia coli (ATCC 8739)" reported_relation== measured_number=16
molecule="CC1(C)S[C@@H]2[C@H](NC(=O)[C@H](N)c3ccccc3)C(=O)N2[C@H]1C(=O)O [AA, Ampicillin, reference compound]" tested_on="Escherichia coli (ATCC 8739)" reported_relation== measured_number=1
molecule="Cc1ccc(S(=O)(=O)N2C(=O)CSC2c2cccc(C)c2)cc1 (stereo not drawn)" tested_on="Escherichia coli (ATCC 8739)" reported_relation== measured_number=16
molecule="Cc1ccc(S(=O)(=O)N2C(=O)CSC2c2ccccc2F)cc1 (stereo not drawn)" tested_on="Escherichia coli (ATCC 8739)" reported_relation== measured_number=4
